Value source: ChEMBL document CHEMBL1157122

Target or system Vascular endothelial growth factor receptor 1 (Homo sapiens, UniProt P17948); recorded quantity pIC50.
pIC50: −log10 of the molar value.
propertyMeasured: pIC50

cpdSmiles	pIC50
Brc1cccc(Nc2ncnc3[nH]c(CCc4ccccc4)cc23)c1	3.89
Fc1ccc(Nc2ncnc3[nH]c(CCc4ccccc4)cc23)cc1C(F)(F)F	3.78

###

Target: Vascular endothelial growth factor receptor 2 (Homo sapiens, UniProt P35968)
Sequence (P35968 whole entry): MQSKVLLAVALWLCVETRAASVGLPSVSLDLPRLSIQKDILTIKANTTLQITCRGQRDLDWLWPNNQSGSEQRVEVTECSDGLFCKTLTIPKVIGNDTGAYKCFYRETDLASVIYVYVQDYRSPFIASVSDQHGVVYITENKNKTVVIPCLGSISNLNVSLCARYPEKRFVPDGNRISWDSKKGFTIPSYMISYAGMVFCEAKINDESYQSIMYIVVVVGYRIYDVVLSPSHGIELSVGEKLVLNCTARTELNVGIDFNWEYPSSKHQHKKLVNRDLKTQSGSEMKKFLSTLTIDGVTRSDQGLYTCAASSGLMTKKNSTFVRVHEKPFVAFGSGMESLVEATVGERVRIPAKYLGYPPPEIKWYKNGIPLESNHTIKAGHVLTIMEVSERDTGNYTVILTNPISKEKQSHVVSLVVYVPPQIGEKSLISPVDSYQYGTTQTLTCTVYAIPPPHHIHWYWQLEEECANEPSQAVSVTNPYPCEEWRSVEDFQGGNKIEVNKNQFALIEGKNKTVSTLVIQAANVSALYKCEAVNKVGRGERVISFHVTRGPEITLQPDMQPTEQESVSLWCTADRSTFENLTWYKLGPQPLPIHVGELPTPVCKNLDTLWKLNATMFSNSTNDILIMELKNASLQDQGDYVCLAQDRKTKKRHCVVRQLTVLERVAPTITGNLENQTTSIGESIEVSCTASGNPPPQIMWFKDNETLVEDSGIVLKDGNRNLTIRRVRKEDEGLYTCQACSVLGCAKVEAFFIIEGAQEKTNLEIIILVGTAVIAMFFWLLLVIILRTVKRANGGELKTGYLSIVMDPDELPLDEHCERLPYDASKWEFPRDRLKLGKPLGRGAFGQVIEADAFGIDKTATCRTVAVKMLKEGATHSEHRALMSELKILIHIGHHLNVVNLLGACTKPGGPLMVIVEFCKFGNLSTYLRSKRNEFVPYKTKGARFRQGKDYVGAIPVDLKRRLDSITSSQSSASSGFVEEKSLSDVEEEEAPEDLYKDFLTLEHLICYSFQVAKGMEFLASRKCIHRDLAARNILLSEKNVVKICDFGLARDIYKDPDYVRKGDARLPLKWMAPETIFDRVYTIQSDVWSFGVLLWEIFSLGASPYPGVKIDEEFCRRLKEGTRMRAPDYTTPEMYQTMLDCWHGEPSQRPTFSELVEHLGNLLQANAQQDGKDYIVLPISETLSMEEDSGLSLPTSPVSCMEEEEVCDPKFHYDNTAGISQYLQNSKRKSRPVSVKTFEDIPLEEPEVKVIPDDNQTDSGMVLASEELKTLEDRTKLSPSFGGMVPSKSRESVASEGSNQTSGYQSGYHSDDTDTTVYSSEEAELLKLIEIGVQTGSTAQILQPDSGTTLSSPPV
propertyMeasured: IC50 (µM)
Numbers only; they are read as µM.

The recorded IC50 for Nc1nc(Nc2ccc(F)c(Br)c2)c2cc(CCc3ccccc3)[nH]c2n1 is 132
